assay: Effect of food on pharmacokinetics of oral DPC 333, two period crossover study (fasted vs high-fat breakfast); assay type: in vivo, human; conditions: male, human, plasma, po, 225 mg, Fed (high-fat breakfast), 225 mg single oral dose, male subjects, n = 6, mean ± SD
Measurement label: Cmax (µM)
Numbers only, in µM.

Problem: I am curious: what Cmax value has been reported for Cc1cc(COc2ccc([C@]3(N)CCN([C@H](CC(C)C)C(=O)NO)C3=O)cc2)c2ccccc2n1 [DPC 333] ?
Solution: 3.41

###

assay: Double-blind, placebo controlled, ascending single dose pharmacokinetic study of oral DPC 333 in healthy subjects; assay type: in vivo, human; conditions: both sexes, human, plasma; single oral dose 225 mg, healthy volunteers, n = 6; read-out: Tmax Median
Measurement label: Tmax
Report field: quantity (unit follows the number).

Problem: What value of Tmax has been reported for the following compound? Cc1cc(COc2ccc([C@]3(N)CCN([C@H](CC(C)C)C(=O)NO)C3=O)cc2)c2ccccc2n1 [DPC 333]
Solution: 45 min

###

experiment: Double-blind, placebo controlled, ascending single dose pharmacokinetic study of oral DPC 333 in healthy subjects; assay type: in vivo, human; details: both sexes, human, plasma; single oral dose 25 mg, healthy volunteers, n = 6; read-out: Tmax Median
Measurement label: Tmax (min)
One number for each entry, in min.

Problem: Please look up its Tmax: Cc1cc(COc2ccc([C@]3(N)CCN([C@H](CC(C)C)C(=O)NO)C3=O)cc2)c2ccccc2n1
Solution: 30

###

experiment: Effect of food on pharmacokinetics of oral DPC 333, two period crossover study (fasted vs high-fat breakfast); format: in vivo, human; conditions: male, human, plasma, po, 225 mg, Fed (high-fat breakfast), 225 mg single oral dose, male subjects, n = 6, mean ± SD
Measurement label: AUC(0-t)
The reply must contain the numeric value and, after it, the unit.

Problem: What value of measured AUC(0-t) is listed for Cc1cc(COc2ccc([C@]3(N)CCN([C@H](CC(C)C)C(=O)NO)C3=O)cc2)c2ccccc2n1 ?
Solution: 9.48 µM·h

###

test: Comparison of DPC 333 pharmacokinetics by gender in fasted subjects; assay type: in vivo, human; details: female, human, plasma, oral, 225 mg, Females (n = 6), Part 1: 225 mg (fasted), mean ± SD
Measurement label: AUC(0-inf)
Respond with the figure and its unit, in that order.

Problem: Which AUC(0-inf) value belongs to Cc1cc(COc2ccc([C@]3(N)CCN([C@H](CC(C)C)C(=O)NO)C3=O)cc2)c2ccccc2n1 [DPC 333] ?
Solution: 11.4 µM·h

###

assay: Comparison of DPC 333 pharmacokinetics by gender in fasted subjects; type: in vivo, human; settings: male, human, plasma, oral, 225 mg, Males (n = 6), Part 2: 225 mg (fasted), mean ± SD
Measurement label: Cmax

Problem: Please look up its Cmax: Cc1cc(COc2ccc([C@]3(N)CCN([C@H](CC(C)C)C(=O)NO)C3=O)cc2)c2ccccc2n1
Solution: 5.7 µM

###

Experiment: Double-blind, placebo controlled, ascending single dose pharmacokinetic study of oral DPC 333 in healthy subjects
Format: in vivo, human
Conditions: both sexes, human, plasma, oral; single dose of 80 mg; read-out: mean time of maximum plasma concentration (Tmax), range
Procedure: The safety, tolerability, and pharmacokinetics of an oral dose form of DPC 333 were evaluated in a double-blind, placebo controlled, ascending single dose study in healthy male and female human subjects. Subjects in each cohort were randomized to receive either a single dose of DPC 333 (n=6) or placebo (n=2). […] The following pharmacokinetic parameters for DPC 333 were assessed following a single dose administration of the DPC 333 oral dosage form to a subject: Cmax, Tmax, AUC, T1/2, Clo, and C12. […]
Measurement label: Tmax

Problem: Consider the compound shown here: Cc1cc(COc2ccc([C@]3(N)CCN([C@H](CC(C)C)C(=O)NO)C3=O)cc2)c2ccccc2n1 [DPC 333] What is its recorded Tmax?
Solution: 30 to 60 min

###

assay: Double-blind, placebo controlled, ascending single dose pharmacokinetic study of oral DPC 333 in healthy subjects; format: in vivo, human; conditions: both sexes, human, plasma; single oral dose 345 mg, healthy volunteers, n = 6; read-out: Cmax Mean
Measurement label: Cmax (µM)
Give bare numbers, in µM.

Problem: # input compound: Cc1cc(COc2ccc([C@]3(N)CCN([C@H](CC(C)C)C(=O)NO)C3=O)cc2)c2ccccc2n1 ; wanted: its Cmax
Solution: 11

###

assay: Double-blind, placebo controlled, ascending single dose pharmacokinetic study of oral DPC 333 in healthy subjects; format: in vivo, human; conditions: both sexes, human, plasma, po, 530 mg, single oral dose 530 mg, healthy volunteers, n = 6; read-out: T½ Mean (harmonic mean) (converted)
Measurement label: half-life (h)
Answers are plain numbers, in h.

Problem: Which value of half-life has been reported for Cc1cc(COc2ccc([C@]3(N)CCN([C@H](CC(C)C)C(=O)NO)C3=O)cc2)c2ccccc2n1 [DPC 333] in the records?
Solution: 6.04

###

experiment: Double-blind, placebo controlled, ascending single dose pharmacokinetic study of oral DPC 333 in healthy subjects; type: in vivo, human; conditions: both sexes, human, plasma; single oral dose 225 mg, healthy volunteers, n = 6; read-out: C12 (plasma concentration at 12 hours) Mean
Measurement label: concentration at 12 h (nM)
Give bare numbers, in nM.

Problem: Dear colleague, I am looking for the recorded concentration at 12 h of the following compound: Cc1cc(COc2ccc([C@]3(N)CCN([C@H](CC(C)C)C(=O)NO)C3=O)cc2)c2ccccc2n1
Solution: 49

###

assay: Effect of food on pharmacokinetics of oral DPC 333, two period crossover study (fasted vs high-fat breakfast); assay type: in vivo, human; conditions: human, plasma; Fasted, 225 mg single oral dose, male subjects, n = 6; read-out: Tmax (median)
Measurement label: Tmax (min)
One number for each entry, in min.

Problem: May I ask what Tmax has been recorded for Cc1cc(COc2ccc([C@]3(N)CCN([C@H](CC(C)C)C(=O)NO)C3=O)cc2)c2ccccc2n1 [DPC 333] ?
Solution: 30

###

test: Double-blind, placebo controlled, ascending single dose pharmacokinetic study of oral DPC 333 in healthy subjects; format: in vivo, human; conditions: both sexes, human, plasma; single oral dose 345 mg, healthy volunteers, n = 6; read-out: C12 (plasma concentration at 12 hours) Mean
Measurement label: concentration at 12 h (nM)
Numbers only, in nM.

Problem: # input molecule: Cc1cc(COc2ccc([C@]3(N)CCN([C@H](CC(C)C)C(=O)NO)C3=O)cc2)c2ccccc2n1 ; wanted: its concentration at 12 h
Solution: 153
